Each recorded value in this set is attributed to ChEMBL document CHEMBL5137033.

The reader will find reported Activity values listed item by item below.
# Test system: HEK293
# PROCEDURE_SUMMARY: Cytotoxicity against HEK293 cells assessed as cell viability at 10 uM incubated for 4 hrs by MTT assay relative to control
# Format: toxicity, cell-based
# CONDITIONS: human, hek293, 4 h, 10 µM
Write the answer as a number in %, unit excluded.

Some entries whose results are on file:
C#CCNS(=O)(=O)c1ccc(CCN(Cc2cc(Cl)ccc2OCCC)C(=O)c2ccc(F)cc2)cc1    91.6
C#CCNS(=O)(=O)c1ccc(CCN(Cc2cccc3c2OCO3)C(=O)c2ccc(F)cc2)cc1    93.4
C#CCNS(=O)(=O)c1ccc(CCN(Cc2cc(Cl)ccc2[N+](=O)[O-])C(=O)Cc2ccsc2)cc1    96.2

Entry under review: `C#CCNS(=O)(=O)c1ccc(CCN(Cc2cc(Cl)ccc2OCCC)C(=O)c2ccc(O)cc2)cc1` . Reported Activity?
92.1

====

The reader will find reported Activity values listed item by item below.
# TESTED_ON: Interferon-inducible protein AIM2 (Mus musculus) (UniProt Q91VJ1)
# Sequence (whole entry): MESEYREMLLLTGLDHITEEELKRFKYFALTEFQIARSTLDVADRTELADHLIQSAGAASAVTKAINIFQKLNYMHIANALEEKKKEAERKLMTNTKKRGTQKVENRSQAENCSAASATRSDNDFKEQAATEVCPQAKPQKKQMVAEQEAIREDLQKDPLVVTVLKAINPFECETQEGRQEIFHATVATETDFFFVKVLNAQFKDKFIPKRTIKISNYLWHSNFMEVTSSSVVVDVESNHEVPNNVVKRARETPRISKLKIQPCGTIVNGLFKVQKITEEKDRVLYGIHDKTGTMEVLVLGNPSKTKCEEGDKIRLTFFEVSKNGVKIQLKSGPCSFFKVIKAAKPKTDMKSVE
# PROCEDURE_SUMMARY: Inhibition of AIM2 inflammasome in LPS-primed mouse J774.A1 cells assessed as IL-1beta secretion at 10 uM preincubated for 1 hr followed by poly(dA:dT) addition and measured after 4 hrs by ELISA relative to control
# Type: cell-based
# Set-up: scale not given: the % may be the effect or the level left
# CONDITIONS: time 5.0 hrs
Write the answer as a number in %, unit excluded.

C#CCNS(=O)(=O)c1ccc(CCN(Cc2cccc3c2OCO3)C(=O)Cc2ccsc2)cc1    68.8
C#CCNS(=O)(=O)c1ccc(CCN(Cc2cc(Cl)ccc2OCCC)C(=O)c2ccc(F)cc2)cc1    67.6
CCCOc1ccc(Cl)cc1CN(CCc1ccc(S(=O)(=O)NCC(C)(C)C)cc1)C(=O)Cc1ccsc1    52.3

Tell me reported Activity for `C#CCNS(=O)(=O)c1ccc(CCN(Cc2cccc3c2OCO3)C(=O)Cc2ccc(F)cc2)cc1` , tested with Interferon-inducible protein AIM2 (Mus musculus) (UniProt Q91VJ1).
59.1

====

The reader will find reported Activity values listed item by item below.
# Test system: J774.A1
# PROCEDURE_SUMMARY: Cytotoxicity against mouse J774.A1 cells assessed as cell viability at 10 uM incubated for 4 hrs by MTT assay relative to control
# Assay type: toxicity, cell-based
# CONDITIONS: j774.a1, 4 h, 10 µM
Write the answer as a number in %, unit excluded.

CCCOc1ccc(Cl)cc1CN(CCc1ccc(S(=O)(=O)N2CCC2)cc1)C(=O)Cc1ccc(F)cc1    106.1

Entry under review: `C#CCNS(=O)(=O)c1ccc(CCN(Cc2ccsc2)Cc2cc(Cl)ccc2OCCC)cc1` . Reported Activity?
90.5

Entry under review: `C#CCNS(=O)(=O)c1ccc(CCN(Cc2cc(Cl)ccc2N)C(=O)Cc2ccsc2)cc1` . Reported Activity?
93.5

Entry under review: `C#CCNS(=O)(=O)c1ccc(CCN(Cc2cccc3c2OCO3)C(=O)Cc2ccsc2)cc1` . Reported Activity?
100

Entry under review: `C#CCNS(=O)(=O)c1ccc(CCN(Cc2cc(Cl)ccc2OCC#C)C(=O)Cc2ccsc2)cc1` . Reported Activity?
95.5

Entry under review: `C#CCNS(=O)(=O)c1ccc(CCN(Cc2cc(Cl)ccc2OCCC)C(=O)c2ccc(B3OC(C)(C)C(C)(C)O3)cc2)cc1` . Reported Activity?
88.1
